- Assay type: binding
- Measurement context: 6′GM3 monolayer, QCM
Readout kind: Kd (µM)

>>> recorded_value("GWWYKGRARPVSAVA [c01-peptide, H-GWWYKGRARPVSAVA-NH2]")
4
>>> recorded_value("RAVWRHSVATPSHSV [c03-peptide, H-RAVWRHSVATPSHSV-NH2]")
7

====

- Format: binding
- Measurement context: GalCer monolayer, QCM
pKd: −log10 of the molar value.
Readout kind: pKd

>>> recorded_value("GWWYKGRARPVSAVA [c01-peptide, H-GWWYKGRARPVSAVA-NH2]")
4.89

====

- Format: binding
- Measurement context: GM3 monolayer, QCM
Readout kind: Kd (µM)

>>> recorded_value("RAVWRHSVATPSHSV [c03-peptide, H-RAVWRHSVATPSHSV-NH2]")
0.34
>>> recorded_value("GWWYKGRARPVSAVA [c01-peptide, H-GWWYKGRARPVSAVA-NH2]")
1.8

Source listed as patent US20090098195A1.
